// reported k on for each item listed
Target: Receptor tyrosine-protein kinase erbB-2 (Homo sapiens)
Sequence (P04626 whole entry): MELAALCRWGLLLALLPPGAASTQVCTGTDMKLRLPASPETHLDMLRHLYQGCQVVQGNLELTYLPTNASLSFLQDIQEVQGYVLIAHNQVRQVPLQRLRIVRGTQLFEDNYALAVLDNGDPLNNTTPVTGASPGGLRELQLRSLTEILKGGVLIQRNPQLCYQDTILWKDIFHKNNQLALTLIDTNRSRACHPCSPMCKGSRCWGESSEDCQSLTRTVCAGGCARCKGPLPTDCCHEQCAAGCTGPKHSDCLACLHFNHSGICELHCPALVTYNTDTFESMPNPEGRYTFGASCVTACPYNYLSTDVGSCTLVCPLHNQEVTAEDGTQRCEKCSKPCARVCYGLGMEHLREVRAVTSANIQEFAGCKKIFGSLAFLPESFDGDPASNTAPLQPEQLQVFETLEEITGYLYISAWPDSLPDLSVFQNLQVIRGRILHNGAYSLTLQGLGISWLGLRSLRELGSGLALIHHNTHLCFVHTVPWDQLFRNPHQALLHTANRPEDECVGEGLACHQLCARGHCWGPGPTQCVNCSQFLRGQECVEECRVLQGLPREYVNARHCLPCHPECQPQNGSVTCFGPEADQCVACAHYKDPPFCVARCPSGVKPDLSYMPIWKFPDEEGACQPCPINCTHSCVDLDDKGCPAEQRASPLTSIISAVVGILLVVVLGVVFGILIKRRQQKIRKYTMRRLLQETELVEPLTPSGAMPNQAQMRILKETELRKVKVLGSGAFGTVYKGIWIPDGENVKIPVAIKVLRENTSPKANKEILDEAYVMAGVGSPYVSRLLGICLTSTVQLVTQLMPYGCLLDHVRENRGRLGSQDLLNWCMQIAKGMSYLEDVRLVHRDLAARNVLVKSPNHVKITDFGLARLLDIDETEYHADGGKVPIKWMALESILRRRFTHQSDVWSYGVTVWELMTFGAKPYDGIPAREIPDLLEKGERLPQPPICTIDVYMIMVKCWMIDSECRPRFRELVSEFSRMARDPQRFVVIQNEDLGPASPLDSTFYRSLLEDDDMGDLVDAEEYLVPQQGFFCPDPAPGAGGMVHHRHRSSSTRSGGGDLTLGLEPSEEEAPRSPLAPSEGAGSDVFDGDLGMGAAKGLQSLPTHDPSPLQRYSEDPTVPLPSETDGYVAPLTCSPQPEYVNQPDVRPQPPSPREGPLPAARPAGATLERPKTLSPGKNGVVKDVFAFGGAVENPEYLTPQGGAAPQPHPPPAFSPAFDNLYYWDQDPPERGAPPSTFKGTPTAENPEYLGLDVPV
Experiment: Kinetic constant for peptide inhibitor binding to HER2 receptor
Positions of bridges follow the written chain, without caps; N, C: chain ends. Residues, ends and D or L forms follow the SMILES beside them.
quantity kind: k on (M⁻¹ s⁻¹)

{"columns": ["molecule", "quantity kind", "value measured"],
 "data": [
  ["CSCC[C@H](NC(=O)[C@H](Cc1ccc(O)cc1)NC(=O)[C@@H]1CSSC[C@H](NC(=O)[C@@H](N)Cc2ccc(O)cc2)C(=O)N[C@@H](CC(=O)O)C(=O)NCC(=O)N[C@@H](Cc2ccccc2)C(=O)N[C@@H](Cc2ccc(O)cc2)C(=O)N[C@@H](C)C(=O)N1)C(=O)N[C@@H](CC(=O)O)C(=O)N[C@H](C(N)=O)C(C)C", "k on", 1960],
  ["CSCC[C@H](NC(=O)[C@H](Cc1ccc(O)cc1)NC(=O)[C@@H]1CSSC[C@H](NC(=O)[C@@H](N)Cc2ccccc2)C(=O)NCC(=O)N[C@@H](CC(=O)O)C(=O)NCC(=O)N[C@@H](Cc2ccccc2)C(=O)N[C@@H](Cc2ccc(O)cc2)C(=O)N[C@@H](C)C(=O)N1)C(=O)N[C@@H](CC(=O)O)C(=O)N[C@H](C(=O)O)C(C)C (H-FCGDGFYACYMDV-OH; disulfide 2-9)", "k on", 922],
  ["CSCC[C@H](NC(=O)[C@H](Cc1ccc(O)cc1)NC(=O)[C@@H]1CSSC[C@H](NC(=O)[C@H](Cc2ccccc2)NC(=O)CN)C(=O)N[C@@H](CC(=O)O)C(=O)NCC(=O)N[C@@H](Cc2ccccc2)C(=O)N[C@@H](Cc2ccc(O)cc2)C(=O)N[C@@H](C)C(=O)N1)C(=O)N[C@@H](CC(=O)O)C(=O)N[C@H](C(=O)O)C(C)C (H-GFCDGFYACYMDV-OH; disulfide 3-9)", "k on", 1110],
  ["CC(C)[C@H](NC(=O)[C@H](CC(=O)O)NC(=O)[C@H](CCCCN)NC(=O)[C@H](Cc1ccc(O)cc1)NC(=O)[C@@H]1CSSC[C@H](NC(=O)[C@@H](N)Cc2ccccc2)C(=O)N[C@@H](CC(=O)O)C(=O)NCC(=O)N[C@@H](Cc2ccccc2)C(=O)N[C@@H](Cc2ccc(O)cc2)C(=O)N[C@@H](C)C(=O)N1)C(=O)O (H-FCDGFYACYKDV-OH; disulfide 2-8)", "k on", 219],
  ["CSCC[C@H](NC(=O)[C@H](Cc1ccc(O)cc1)NC(=O)[C@@H]1CSSC[C@H](NC(=O)[C@@H](N)Cc2ccccc2)C(=O)N[C@@H](CC(=O)O)C(=O)NCC(=O)N[C@@H](Cc2ccccc2)C(=O)N[C@@H](Cc2ccc(O)cc2)C(=O)N[C@@H](C)C(=O)N1)C(=O)N[C@@H](CC(=O)O)C(=O)N[C@H](C(N)=O)C(C)C", "k on", 1410],
  ["CSCC[C@H](NC(=O)[C@@H](Cc1ccc(O)cc1)NC(=O)[C@@H]1CSSC[C@H](NC(=O)[C@H](N)Cc2ccccc2)C(=O)N[C@@H](CC(=O)O)C(=O)NCC(=O)N[C@@H](Cc2ccccc2)C(=O)N[C@@H](Cc2ccc(O)cc2)C(=O)N[C@@H](C)C(=O)N1)C(=O)N[C@@H](CC(=O)O)C(=O)N[C@H](C(N)=O)C(C)C", "k on", 1720]
]}
